System: CCRIS mutagenicity, Ames/micronucleus/aberration tests
Experiment: CCRIS mutagenicity studies
Settings: Test System: AMES SALMONELLA TYPHIMURIUM; Strain/Indicator: TA100; Metabolic Activation: RAT, LIVER, S-9, AROCLOR 1254; Method: STANDARD PLATE
Active and inactive are the calls of the source. How the calls were made is not given here.
Possible outcomes: T = active, F = inactive

compound: Cc1cc(N)c(C)c([N+](=O)[O-])c1N
className: F

compound: CNCCCC(=O)O
className: F

compound: CC(=O)O[C@]1(C(C)=O)CC[C@H]2[C@@H]3C[C@H](C)C4=CC(=O)CC[C@]4(C)[C@H]3CC[C@@]21C
className: F

compound: O=[N+]([O-])c1ccc2ccc3c4c(cc5ccc1c2c53)C=CCC4
className: T

compound: C1CCCC2OC2CC1 (stereo not drawn)
className: F

compound: CCNc1nc(Cl)nc(NCC)n1
className: F

compound: CC/C(=C(/CC)c1ccc(O)cc1)c1ccc(O)cc1
className: F

compound: Nc1ccc(S(=O)(=O)Nc2cnc3c(Cl)cccc3n2)cc1
className: F

Data provenance is PubChem BioAssay AID1259407.
